# assayName: Size exclusion chromatography, % aggregate fraction of ADC
# Type: physicochemical
# measurementSetup: hybridoma mAb conjugated with synthon CZ, Method A
reportedProperty: % Aggregates by SEC (%)
Kindly answer with a numeric value in %, unit omitted.

Worked examples follow.
[[record]]
molecule = "Ab12-CZ (conjugate) VH: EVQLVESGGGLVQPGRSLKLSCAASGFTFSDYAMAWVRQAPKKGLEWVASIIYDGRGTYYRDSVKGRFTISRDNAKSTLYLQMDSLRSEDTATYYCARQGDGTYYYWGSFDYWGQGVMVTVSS VL: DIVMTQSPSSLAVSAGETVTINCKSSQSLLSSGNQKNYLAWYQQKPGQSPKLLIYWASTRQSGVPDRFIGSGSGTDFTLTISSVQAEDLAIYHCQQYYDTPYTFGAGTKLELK"
obsvalue = 2.9

[[record]]
molecule = "Ab13-CZ (conjugate) VH: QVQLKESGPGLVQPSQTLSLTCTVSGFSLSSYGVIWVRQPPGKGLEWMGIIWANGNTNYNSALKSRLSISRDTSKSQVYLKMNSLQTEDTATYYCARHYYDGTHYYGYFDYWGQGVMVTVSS VL: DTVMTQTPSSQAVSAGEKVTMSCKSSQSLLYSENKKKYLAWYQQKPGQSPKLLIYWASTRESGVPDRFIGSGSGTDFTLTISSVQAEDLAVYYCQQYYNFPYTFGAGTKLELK"
obsvalue = 4.7

[[record]]
molecule = "Ab10-CZ (conjugate) VH: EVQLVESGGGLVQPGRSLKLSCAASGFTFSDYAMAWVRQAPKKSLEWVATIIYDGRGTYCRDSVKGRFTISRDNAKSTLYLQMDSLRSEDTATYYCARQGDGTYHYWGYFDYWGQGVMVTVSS VL: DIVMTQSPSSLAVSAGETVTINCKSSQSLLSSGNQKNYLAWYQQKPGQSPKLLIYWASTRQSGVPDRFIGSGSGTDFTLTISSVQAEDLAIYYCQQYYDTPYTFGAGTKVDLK"
obsvalue = 4.7


The record that follows has no % Aggregates by SEC shown yet.
Reported % Aggregates by SEC for Ab15-CZ (conjugate) VH: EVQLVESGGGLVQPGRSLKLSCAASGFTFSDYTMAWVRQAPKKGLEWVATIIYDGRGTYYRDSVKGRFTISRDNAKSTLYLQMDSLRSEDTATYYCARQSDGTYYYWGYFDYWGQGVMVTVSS VL: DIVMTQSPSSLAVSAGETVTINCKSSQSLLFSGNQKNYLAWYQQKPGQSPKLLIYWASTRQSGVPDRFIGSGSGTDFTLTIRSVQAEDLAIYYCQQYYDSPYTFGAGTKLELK was 5.7
